tested on: Ldtfm; experiment: Inhibition of L,D-transpeptidase by DBOs, residual nitrocefin hydrolysis; assay type: biochemical, E. faecium; conditions: Inhibitor/Ldtfm molar ratio 20 (DBO 200 μM, enzyme 10 μM); 260 min at 37° C.
Reported Residual activity of Ldtfm following pre-incubation by item:
State just the number; it will be interpreted in %.

O=C1N2C[C@@H](CC[C@H]2Cn2cc(CN3CCOCC3)nn2)N1OS(=O)(=O)[O-].[Na+]
28.1
C[Si](C)(C)c1cn(C[C@@H]2CC[C@@H]3CN2C(=O)N3OS(=O)(=O)O)nn1
27.2
NC(=O)[C@@H]1CC[C@@H]2CN1C(=O)N2OS(=O)(=O)O [Avibactam, reference compound]
2.4

Please find the next compound below.
Read off the recorded Residual activity of Ldtfm following pre-incubation for "O=C1N2C[C@@H](CC[C@H]2Cn2cc(-c3cccnc3)nn2)N1OS(=O)(=O)O" 15.8

* * *

molecular target: LdtMt2 (Mycobacterium tuberculosis, UniProt I6Y9J2); test: Inhibition of L,D-transpeptidase by DBOs, residual nitrocefin hydrolysis; type: biochemical, M. tuberculosis; conditions: 260 min, Inhibitor/LdtMt2 molar ratio 20 (DBO 200 μM, enzyme 10 μM); 260 min at 37° C.; read-out: Residual activity of LdtMt2 following pre-incubation
Sequence (I6Y9J2 55-408): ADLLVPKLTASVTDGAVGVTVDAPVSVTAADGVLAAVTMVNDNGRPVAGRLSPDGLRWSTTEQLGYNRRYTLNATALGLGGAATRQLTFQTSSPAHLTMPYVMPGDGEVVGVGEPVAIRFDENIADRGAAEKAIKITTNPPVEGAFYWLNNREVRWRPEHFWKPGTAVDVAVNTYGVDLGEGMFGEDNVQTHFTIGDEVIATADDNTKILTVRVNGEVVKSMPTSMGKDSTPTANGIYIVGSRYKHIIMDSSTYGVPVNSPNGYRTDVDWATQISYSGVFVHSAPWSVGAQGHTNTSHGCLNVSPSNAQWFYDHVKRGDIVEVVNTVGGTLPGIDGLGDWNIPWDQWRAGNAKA
Labelling: remaining activity at 200 µM reported below 40% becomes 1; at or above becomes 0.

// below: answered compounds
O=C1N2C[C@@H](CC[C@H]2Cn2cc(-c3cccnc3)nn2)N1OS(=O)(=O)O
1
O=C1N2C[C@@H](CC[C@H]2Cn2cc(CN3CCOCC3)nn2)N1OS(=O)(=O)[O-].[Na+]
0
COCc1cn(C[C@@H]2CC[C@@H]3CN2C(=O)N3OS(=O)(=O)O)nn1
0
C[Si](C)(C)c1cn(C[C@@H]2CC[C@@H]3CN2C(=O)N3OS(=O)(=O)O)nn1
0
O=C1N2C[C@@H](CC[C@H]2Cn2cc(-c3ccccc3)nn2)N1OS(=O)(=O)O
1

Now look at this one.
Consider "O=C(O)CCc1cn(C[C@@H]2CC[C@@H]3CN2C(=O)N3OS(=O)(=O)O)nn1" . Does its remaining activity at 200 µM lie strictly below 40%? 0

Where do the numbers come from? From patent US20200325139A1.
